Cmax values by entry
assayExplanation: 14-day toxicity test with toxicokinetics in SD rats
Type: in vivo
condition: female, SD, rat, blood, 100 mg/kg, female SD rats, 100 mg/kg once a day for 14 days, last administration; read-out: Cmax Last administration
Dear colleague, please send the value followed by its unit.

C[C@@H](Cn1c(=O)nc(Nc2ccc(Oc3ccccn3)cc2)n(Cc2ccc(Cl)cc2)c1=O)C(=O)O [Compound D1, reference compound]
156 µg/mL

The reported value for O=C(O)[C@H]1C[C@@H]1Cn1c(=O)[nH]/c(=N\c2ccc(Oc3ccc(F)cn3)cc2)n(Cc2ccc(Cl)cc2)c1=O [Compound H5-P1] in terms of Cmax is 135 µg/mL
